TEST_DETAILS: protein stability index of a GFP-peptide fusion (yeast GPS) (PSI 1-4); higher = more stable; sorted into four equal gates, so the index is relative within each strain
CONDITION_SUMMARY: san1∆
// classify(record): look up protein stability index in ranges LOW (below 2), MEDIUM (2 to below 3), HIGH (3 or more)

Reference set (6 entries):
INSERT INTO results (residue_codes, category) VALUES
  ('CKLFDKISFNLRLKLFL [SRB8]', 'LOW'),
  ('ERVTALKNCKISNINIP [SMC1]', 'HIGH'),
  ('LYSYLIKENFFERIMIL [YJL039C/NUP192]', 'LOW'),
  ('EATLLTNSNNGSSNNNT [SNF5]', 'HIGH'),
  ('QSLNEMVKLIVMLCTLT [YJL039C/NUP192]', 'MEDIUM'),
  ('LIPASDLSWSKQTDTGI [PRP8]', 'MEDIUM');

Problem: Input STGPTGAVSLNPSITRL [RRP4] ; output its category
Solution: MEDIUM

* * *

TEST_DETAILS: protein stability index of a GFP-peptide fusion (yeast GPS) (PSI 1-4); higher = more stable; sorted into four equal gates, so the index is relative within each strain
CONDITION_SUMMARY: pdr5∆
Would you please tag the item satisfied when its protein stability index is 3 or above, and not satisfied when it is below?

Reference set (4 entries):
INSERT INTO assay_data (residue_codes, category) VALUES
  ('TSCTIPKAVVDHINGSG [GAL11]', 'not satisfied'),
  ('QGGNNELGTAVGKLFRV [RPL30]', 'not satisfied'),
  ('PTNCPLRQFKTCPVEVI [BRR2]', 'satisfied'),
  ('KTFSRLDALTRHIKSKH [RPN4]', 'not satisfied');

Problem: Has TMHTKTYAAEIAHNISA [RPL32] a recorded protein stability index greater than or equal to 3?
Solution: not satisfied

Problem: Has TAFATEFFVQVLTHESL [DLS1] a recorded protein stability index greater than or equal to 3?
Solution: not satisfied

Problem: Has DEKDYLTNQQPKNLSTP [CSE2] a recorded protein stability index greater than or equal to 3?
Solution: not satisfied

Problem: Has TLHLVLRLRGGIIEPSL [RPL40A] a recorded protein stability index greater than or equal to 3?
Solution: not satisfied

Problem: Has TGANSIYSVEKKISRLP [UBP6] a recorded protein stability index greater than or equal to 3?
Solution: satisfied

Problem: Has VAFDNINTHIETLAYNS [SNF2] a recorded protein stability index greater than or equal to 3?
Solution: not satisfied

* * *

TEST_DETAILS: protein stability index of a GFP-peptide fusion (yeast GPS) (PSI 1-4); higher = more stable; sorted into four equal gates, so the index is relative within each strain
CONDITION_SUMMARY: pdr5∆
Would you please tag the item Satisfied when its protein stability index is 3 or above, and Not satisfied when it is below?

Reference set (9 entries):
INSERT INTO measurements (residue_codes, category) VALUES
  ('DIRKFLDGIYVSHKGFI [RPL9A]', 'Not satisfied'),
  ('EGLELLGWIHTQTEELK [PRP8]', 'Not satisfied'),
  ('VQDKDTLSNAERAKNVN [GAL11]', 'Not satisfied'),
  ('GKELDSLDLNNLELGGL [PGD1]', 'Satisfied'),
  ('LEASLNSITKDNIDYAP [YJL039C/NUP192]', 'Not satisfied'),
  ('LSIWIKNYPEYFLKVTF [IRR1]', 'Not satisfied'),
  ('EKIMILLVPLALLTKRL [CSN12]', 'Not satisfied'),
  ('DSLKLNSKPVELKPVSL [YJL041W/NSP1]', 'Not satisfied'),
  ('VSQMVAVVGQQIISGNR [RPO31]', 'Satisfied');

Now take the following sequence into account.
Problem: Has IYKRGQAGVTKASVTIV [SMC2] a recorded protein stability index greater than or equal to 3?
Solution: Not satisfied
